Procedure Details: chemical genetic growth profiling, strain panel (AID 1159580);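 further: tested at 20 µM; growth read once vehicle control cultures reached saturation at 30 °C; 1 = growth at the plate median or of vehicle wells; lower values mean less growth of the strain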
Assay Context: S. cerevisiae deletion strains, growth OD, locus YCL029C, strain bik1, hits give low values
Out of some 5,500 compounds screened, about 2,000 (36%) were called active. Another 18% or so got no clear call; they are omitted. The list shows a part of the results.
Recorded Endpoint: normalized growth
Form: value (number only, do not type unit).

Compound | normalized growth
CCCCCc1c2c(cc(O)c1C(=O)O)OC(=O)c1c(cc(OC)cc1C(=O)CCCC)O2 | 0.989

Memo: NC(=NCCC[C@H](N)C(=O)O)N[N+](=O)[O-] , reported normalized growth: 0.994

Memo: Cc1cc(C2CCCCC2)n(O)c(=O)c1 , reported normalized growth: 0.0632

Memo: CCN(Cc1ccncc1)C(=O)C(CO)c1ccccc1 (stereo unspecified) , reported normalized growth: 0.973

Memo: COC(=O)C1OC(=O)C2OC23C1(C)CCC1C2(C)C(OC(C)=O)CC(OC(C)=O)C(C)(C)C2CC(=O)C13C (stereo unspecified) , reported normalized growth: 0.987

Memo: Oc1cc2c(cc1O)C1c3ccc(O)c(O)c3OCC1(O)C2 (stereo unspecified) , reported normalized growth: 0.997

Memo: C[C@@H]1O[C@@H](OC[C@H]2OC(Oc3c(-c4ccc(O)c(O)c4)oc4cc(O)cc(O)c4c3=O)[C@H](O)[C@@H](O)[C@@H]2O)[C@H](O)[C@H](O)[C@H]1O (stereo partly specified) , reported normalized growth: 0.988
